ASSAY_TARGET: human MyD88 (human) (UniProt Q99836)
MEASUREMENT_DESCRIPTION: P3 phage display panning on plate-immobilised MyD88, after round 4, NGS
List of log10 of NGS count values.
PROPERTY: log10 of NGS count (log10 of the value in count)

>>> df
             binder  numeric_result
0  SSFREGLWRLLELSKK            4.90
1  SELRVVDDGSVSPLEM            3.69
2  NELVHVWSSKANSLVG            3.95
3  LKWGDPYFWSKLRYAM            3.92
4  YLKWGYPWFWDRLRFA            3.86
5  HLLKEFDKKLITAFKD            3.38
6  LKVESWRQALEKAGKL            4.23
